# Test system: rabbit platelets
# assay.procedure: PAF-induced platelet aggregation
# Type: cell-based
# recorded.conditions: Oryctolagus cuniculus, washed rabbit platelets, antagonist 60 sec before PAF, tracing height 60 sec after PAF
# Description: Washed, [^3 H]serotonin-labeled rabbit platelets were prepared as previously described in COX, C. […] Aggregation was continuously monitored on a strip-chart recorder and recorded as the height of the tracing at 60 sec after the addition of PAF. Secretion of [^3 H]serotonin was measured in a sample of the platelet suspension removed at 60 sec after the addition of PAF. […] IC50 values were determined by inspection of the dose-response curves.
readout.name: IC50

compound: COc1cc(Oc2ccc(C(=O)N(C3CCCCC3)C3CCCC3)cc2C)cc(OC)c1OC
assay.target: rabbit platelets
IC50: < 1 µM

Turning now to a further record.
Report IC50 for COc1ccc(C(O)c2ccc(C(=O)N(C3CCCC3)C3CCCC3)cc2)cc1OC (centres unmarked) please.
> 10 µM

* * *

# assay.target: Human Platelet Membrane Receptors (PAF receptor) (Homo sapiens)
# Sequence (P25105 whole entry): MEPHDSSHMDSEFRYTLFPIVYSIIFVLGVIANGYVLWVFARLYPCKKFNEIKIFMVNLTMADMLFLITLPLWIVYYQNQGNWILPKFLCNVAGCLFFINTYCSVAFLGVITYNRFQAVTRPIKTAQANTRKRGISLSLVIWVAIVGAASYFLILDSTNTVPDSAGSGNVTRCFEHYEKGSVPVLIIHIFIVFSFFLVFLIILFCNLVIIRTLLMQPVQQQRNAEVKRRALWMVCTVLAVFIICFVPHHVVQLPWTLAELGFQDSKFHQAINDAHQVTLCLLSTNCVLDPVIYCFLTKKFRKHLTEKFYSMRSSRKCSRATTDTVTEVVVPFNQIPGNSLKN
Each record is given YES if its reported IC50 is strictly below 3 µM. Records at or above 3 µM are given NO.

Solved entries (count: 5):
compound: COc1cc(OC)c(OC)cc1Cc1ccc(C(=O)N(C2CCCCC2)C2CCCC2)cc1 [Example 17]
assigned.class: NO
--
compound: COc1cc(OC)cc(Oc2ccc(C(=O)N(C(C)C)C3CCCCC3)cc2)c1 [Example 12]
assigned.class: YES
--
compound: COc1cc(Oc2ccc(C(=O)N(C3CCCCC3)C3CCCC3)cc2)cc(OC)c1OC [Example 4]
assigned.class: YES
--
compound: COc1cc(Oc2ccc(C(=O)N(C(C)C)C3CCCCC3)cc2)cc(OC)c1OC [Example 1]
assigned.class: YES
--
compound: COc1ccc(Oc2ccc(C(=O)N(C3CCCCC3)C3CCCC3)cc2)cc1OC [Example 5]
assigned.class: YES

# TODO verify IC50 < 3 µM strictly for this compound: COc1ccc(Cc2ccc(C(=O)N(C3CCCC3)C3CCCC3)cc2)cc1OC [Example 11]
YES

For COc1cccc(OCc2ccc(C(=O)N(C)C3CCCCC3)cc2)c1 [Example 22] then?
NO

* * *

pIC50 values for the compounds below.
# System: rabbit platelets
# assay.procedure: PAF-induced platelet secretion ([3H]serotonin)
# Assay type: cell-based
# recorded.conditions: Oryctolagus cuniculus, 1 min, washed [3H]serotonin-labeled rabbit platelets, antagonist 60 sec before PAF, sampled 60 sec after PAF
pIC50: −log10 of the molar value.

compound: COc1cc(OCc2ccc(C(=O)N(C)C3CCCCC3)cc2)cc(OC)c1OC
pIC50: 4.00 to 5.00

Test system rabbit platelets; read-out pIC50; what value for COc1ccc(C(O)c2ccc(C(=O)N(C3CCCC3)C3CCCC3)cc2)cc1OC (centres unmarked) ?
5.00 to 6.00

* * *

# assay.target: Human Platelet Membrane Receptors (PAF receptor) (Homo sapiens)
# recorded.conditions: read-out: Percent Inhibition of 3H-PAF binding at 50 μM
Please enter Fulfilled where inhibition at 50 µM is greater than or equal to 50%, and Not fulfilled where it is lower.

Take a look at these entries with their results.
molecule: COc1ccc(C(O)c2ccc(C(=O)N(C(C)C)C3CCCCC3)cc2)cc1OC (centres unmarked)
assay.target: Human Platelet Membrane Receptors (PAF receptor) (Homo sapiens)
assigned.class: Not fulfilled
//
molecule: COc1ccc(C(O)c2ccc(C(=O)N(C3CCCC3)C3CCCC3)cc2)cc1OC (centres unmarked)
assay.target: Human Platelet Membrane Receptors (PAF receptor) (Homo sapiens)
assigned.class: Not fulfilled

Test whether the molecule COc1ccc(C(O)c2ccc(C(=O)N(C3CCCCC3)C3CCCC3)cc2)cc1OC (centres unmarked) records inhibition at 50 µM of 50% or higher.
Fulfilled

Cool, now COc1ccc(OCc2ccc(C(=O)N(C(C)C)C3CCCCC3)cc2OC)c(OC)c1
Not fulfilled
